molecular target: PSD-95 PDZ3cα (residues R309-S422) (Homo sapiens); test: SPR binding of peptides to immobilized PDZ3cα
Sequence (P78352 309-422): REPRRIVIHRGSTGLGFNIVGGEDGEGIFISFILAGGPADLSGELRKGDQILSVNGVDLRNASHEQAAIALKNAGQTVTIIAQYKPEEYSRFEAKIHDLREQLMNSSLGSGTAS
pKd: −log10 of the molar value. No end group written: not given here.
Quick list: pKd per entry.
RECORDED_ENDPOINT: pKd

[[record]]
monomer_sequence = "RRRRRRGSFPPWIQQTRV [V8I]"
study_target = "PSD-95 PDZ3cα (residues R309-S422) (Homo sapiens)"
assay_result = 7.00

[[record]]
monomer_sequence = "RRRRRRGSHPPWVQQTRV [F4H]"
study_target = "PSD-95 PDZ3cα (residues R309-S422) (Homo sapiens)"
assay_result = 6.92

[[record]]
monomer_sequence = "RRRRRRGSFPPWLQQTRV [V8L]"
study_target = "PSD-95 PDZ3cα (residues R309-S422) (Homo sapiens)"
assay_result = 7.23

[[record]]
monomer_sequence = "GSFPPWVQ [aC binder, reference compound]"
study_target = "PSD-95 PDZ3cα (residues R309-S422) (Homo sapiens)"
assay_result = 4.95

